# protocol-details: qHTS assay to identify small molecule antagonists of the estrogen receptor alpha (ER-alpha) signaling pathway using the BG1 cell line in the presence of 0.1 nM 17-beta-estradiol - cell viability counter screen (AID 1259241); also: nearly all actives have a fitted effect of over 40% in size
# applied-conditions: VM7Luc4E2 (BG1) viability, CellTiter-Fluor protease, 22 h, 0.1 nM estradiol agonist added; series mostly up to 92.4 µM
Results filed as inconclusive are left out. The source made the active and inactive calls. Calls follow the shape of the dose curve; as a rule, active = well fitted cell-killing curve with a large enough effect in the repeat runs; inconclusive = weak or mixed curves, or effect the other way; inactive = flat fitted curve, though single readings scatter.
Outcomes: active, inactive

>  <molecule>
CC(C)COC(=O)c1ccccc1C(=O)OCC(C)C

>  <assigned-label>
inactive

$$$$
>  <molecule>
CC(C)(c1ccc(OCC2CO2)cc1)c1ccc(OCC2CO2)cc1 (centres undefined)

>  <assigned-label>
inactive

$$$$
>  <molecule>
Cc1ccc(N=CN(C)C=Nc2ccc(C)cc2C)c(C)c1

>  <assigned-label>
inactive

$$$$
>  <molecule>
ClCC(Cl)CCl

>  <assigned-label>
inactive

$$$$
>  <molecule>
CNC(=O)Oc1cccc2c1OC(C)(C)C2

>  <assigned-label>
inactive

$$$$
>  <molecule>
CC(C)=CC1C(C(=O)OCN2C(=O)C3=C(CCCC3)C2=O)C1(C)C (centres undefined)

>  <assigned-label>
inactive

$$$$
>  <molecule>
C=CC(Cl)CCl (centres undefined)

>  <assigned-label>
inactive

$$$$
>  <molecule>
OC(c1ccc(Cl)cc1)(c1cncnc1)c1ccccc1Cl (centres undefined)

>  <assigned-label>
inactive

$$$$
>  <molecule>
ClC(Cl)(Cl)Br

>  <assigned-label>
inactive

$$$$
>  <molecule>
CCCCC(C#N)(Cn1cncn1)c1ccc(Cl)cc1 (centres undefined)

>  <assigned-label>
inactive

$$$$
>  <molecule>
C=CC(=O)OCC(CC)(COC(=O)C=C)COC(=O)C=C

>  <assigned-label>
active

$$$$
>  <molecule>
CC1(C)C(C(=O)OC(C#N)c2cccc(Oc3ccccc3)c2)C1(C)C (centres undefined)

>  <assigned-label>
inactive

$$$$
>  <molecule>
CCOC(=O)c1ccccc1N

>  <assigned-label>
inactive

$$$$
>  <molecule>
CC(C)Nc1ccc(Nc2ccccc2)cc1

>  <assigned-label>
active

$$$$
>  <molecule>
COP(=O)(NC(C)=O)SC (centres undefined)

>  <assigned-label>
inactive

$$$$
>  <molecule>
N#Cc1nn(-c2c(Cl)cc(C(F)(F)F)cc2Cl)c(N)c1S(=O)C(F)(F)F (centres undefined)

>  <assigned-label>
inactive

$$$$
>  <molecule>
Clc1ccccc1-c1nnc(-c2ccccc2Cl)nn1

>  <assigned-label>
inactive

$$$$
>  <molecule>
ClCc1ccccn1

>  <assigned-label>
inactive

$$$$
>  <molecule>
CC1(C)Cc2cccc(O)c2O1

>  <assigned-label>
inactive

$$$$
>  <molecule>
Cn1c(-c2ccccc2)cc(-c2ccccc2)[n+]1C

>  <assigned-label>
inactive

$$$$
>  <molecule>
Nc1ccc([N+](=O)[O-])cc1N

>  <assigned-label>
active

$$$$
>  <molecule>
S=c1[nH]c2ccccc2[nH]1

>  <assigned-label>
inactive

$$$$
>  <molecule>
O=C1C(Cl)=C(Cl)C(=O)c2ccccc21

>  <assigned-label>
active

$$$$
>  <molecule>
CC(C)Nc1nc(Cl)nc(NC(C)C)n1

>  <assigned-label>
inactive

$$$$
>  <molecule>
CCCCOC(=O)COC(=O)c1ccccc1C(=O)OCCCC

>  <assigned-label>
inactive

$$$$
>  <molecule>
C[N+](C)(C)CC(=O)[O-]

>  <assigned-label>
inactive

$$$$
>  <molecule>
CCOP(=S)(OCC)SCSC(C)(C)C

>  <assigned-label>
inactive

$$$$
>  <molecule>
CCCCOCC1CO1 (centres undefined)

>  <assigned-label>
inactive

$$$$
>  <molecule>
Nc1ncn[nH]1

>  <assigned-label>
inactive

$$$$
